assay: NCI Yeast Anticancer Drug Screen. Data for the sgs1 mgt1 strain (AID 161);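 also: 0% = growth of cultures given vehicle only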; settings: S. cerevisiae sgs1 mgt1 strain, at 50.0 µM, stronger effect = higher value
About 79,000 compounds went through this panel and 15% of them were active in at least one assay; those are over-represented in the sample as a whole.
I would appreciate it if you labelled entries label 1 when growth inhibition is 10% or higher, otherwise label 0.

- molecule: "COc1ccc(NS(=O)(=O)c2ccc(NCc3c4ccccc4nc4ccccc34)cc2)nn1"
  groupLabel: "label 1"
- molecule: "CNC(=S)SSSC(=S)NC"
  groupLabel: "label 0"
- molecule: "Cc1[nH]c2ccccc2c1C(=O)Cc1ccc(Cl)cc1Cl"
  groupLabel: "label 1"
- molecule: "CC(C)(C)c1ccc(OCCOCCCl)c(Cl)c1"
  groupLabel: "label 1"
- molecule: "CCCCCCCCCCCCCCCCCC[N+]1(C)CCOCC1"
  groupLabel: "label 1"
- molecule: "CC1=CCC(C(C)(C)OCCCO)CC1 (centres undefined)"
  groupLabel: "label 0"
- molecule: "O=C(O)C1(Br)CC1(c1ccccc1)c1ccccc1 (centres undefined)"
  groupLabel: "label 0"
- molecule: "Cc1cc(C)c2nccc(/C=C/c3ccc(N(C)C)cc3)c2c1"
  groupLabel: "label 0"
- molecule: "O=C(CN=Cc1ccccc1O)NCc1ccccn1"
  groupLabel: "label 1"
- molecule: "COc1ccc2nc(N(C)C)cc(N(C)C)c2c1"
  groupLabel: "label 0"
- molecule: "Cc1cc(C)c(S(=O)(=O)ONC(=O)OC(C)(C)C)c(C)c1"
  groupLabel: "label 0"
- molecule: "Nc1nc(Cl)nc(Cl)n1"
  groupLabel: "label 0"
- molecule: "CC(C)=NNC(=O)Nc1cccc(C)c1C"
  groupLabel: "label 0"
- molecule: "O=C(c1ccccc1)N1OCCCc2ccccc21"
  groupLabel: "label 1"
- molecule: "COc1ccc(N2C(=O)c3c(c4[nH]c5ccccc5c4c4ccc(C(C)(C)C)cc34)C2=O)cc1"
  groupLabel: "label 1"
- molecule: "CCc1ccccc1NC(=O)CCc1nc(=S)[nH][nH]1"
  groupLabel: "label 0"
- molecule: "CC(C)NCc1ccccc1Sc1ccccc1CNC(C)C"
  groupLabel: "label 1"
- molecule: "O=C(CCCCCCCCC(=O)NCC1(c2ccccc2)CCNCC1)NCC1(c2ccccc2)CCNCC1"
  groupLabel: "label 0"
- molecule: "O=C(NO)Nc1ccc(Cl)cc1"
  groupLabel: "label 0"
- molecule: "COC(=O)C(Br)C(Br)c1ccc(OC)c(OC)c1 (centres undefined)"
  groupLabel: "label 1"
- molecule: "CC(=O)Nc1ccc(/C=C/C(=O)c2sc(-c3cccnc3)nc2C)cc1"
  groupLabel: "label 0"
- molecule: "Cc1cc(=O)[nH]c(-n2[nH]c(C)c(CCO)c2=O)n1"
  groupLabel: "label 1"
- molecule: "COc1cc2c(C)cc(O)cc2c2cc(O)c(C)cc12"
  groupLabel: "label 0"
- molecule: "CCOc1ccc(NC(=O)/C=C/c2ccco2)cc1"
  groupLabel: "label 1"

====

experiment: NCI Yeast Anticancer Drug Screen. Data for the cln2 rad14 strain (AID 165);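 also: 0% = growth equal to vehicle treated cultures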; details: S. cerevisiae cln2 rad14 strain, at 50.0 µM, stronger effect = higher value
The panel holds about 79,000 compounds, 15% with a hit somewhere; the sample as a whole holds those more often.
Known growth inhibition of a selection of compounds
recordedEndpoint: growth inhibition (%)

- compound: "CSC1(C(=O)O)C2CCC3C2CCC31 (centres undefined)"
  recordedEndpoint: "growth inhibition"
  readoutUnits: "%"
  measuredValue: 26.9
- compound: "NC(CS)C(=O)NCCNCCNc1ccc(NCCNCCNC(=O)C(N)CS)c2c1C(=O)c1c(O)ccc(O)c1C2=O (centres undefined)"
  recordedEndpoint: "growth inhibition"
  readoutUnits: "%"
  measuredValue: -0.85
- compound: "CNC(=O)C(c1ccccc1)C(F)(F)F (centres undefined)"
  recordedEndpoint: "growth inhibition"
  readoutUnits: "%"
  measuredValue: -12.4
- compound: "C/C(O)=C(/C=N/C(N)=S)C(N)=O"
  recordedEndpoint: "growth inhibition"
  readoutUnits: "%"
  measuredValue: 22
- compound: "O=C(Nc1c(Cl)cccc1Cl)Oc1cccnc1"
  recordedEndpoint: "growth inhibition"
  readoutUnits: "%"
  measuredValue: 2.55
- compound: "Clc1c(Cl)c(CBr)c(Cl)c(-c2c(Cl)c(Cl)c(Cl)c(CBr)c2Cl)c1Cl"
  recordedEndpoint: "growth inhibition"
  readoutUnits: "%"
  measuredValue: -25.7
- compound: "CC(C)CCCC(C)C1CCC2C1CCC1C2CCC2(C)CCC(=O)CCC12C (centres undefined)"
  recordedEndpoint: "growth inhibition"
  readoutUnits: "%"
  measuredValue: -17.8
- compound: "CC(C)(C)NCC1CCCC1"
  recordedEndpoint: "growth inhibition"
  readoutUnits: "%"
  measuredValue: -22.9
- compound: "O/N=C/c1ccccc1O"
  recordedEndpoint: "growth inhibition"
  readoutUnits: "%"
  measuredValue: 9.65
- compound: "COC(=O)/C=C/C=C/C(=O)OC"
  recordedEndpoint: "growth inhibition"
  readoutUnits: "%"
  measuredValue: -41.9
- compound: "N#C/C(=C\\c1ccccc1Br)C(=O)c1ccccc1"
  recordedEndpoint: "growth inhibition"
  readoutUnits: "%"
  measuredValue: 11.4
- compound: "CC(C)C(C(=O)O)C(=O)O"
  recordedEndpoint: "growth inhibition"
  readoutUnits: "%"
  measuredValue: 1.25
- compound: "O=C(O)c1c(Cl)c(Cl)c(Cl)c(Cl)c1C(=O)Nc1cccc(C(F)(F)F)c1"
  recordedEndpoint: "growth inhibition"
  readoutUnits: "%"
  measuredValue: -7.35
- compound: "COc1ccc(C(=O)O)c2c(=O)c3ccccc3[nH]c12"
  recordedEndpoint: "growth inhibition"
  readoutUnits: "%"
  measuredValue: 17.2

====

test: NCI Yeast Anticancer Drug Screen. Data for the mlh1 rad18 strain (AID 175); conditions: S. cerevisiae mlh1 rad18 strain growth inhibition; at 50.0 µM; stronger effect = higher value
This is part of a sample that, as a whole, favours compounds with a hit. Of some 79,000 tested, about 15% had one in any assay.
Known growth inhibition of a selection of compounds
recordedEndpoint: growth inhibition (%)

- compound: "O=C(CCc1cccs1)OC1CCCCC1"
  measuredValue: 20.9
- compound: "COc1cccc(-n2cnc3c(=S)nc[nH]c32)c1"
  measuredValue: 1.9
- compound: "CCC(c1ccc(OC)cc1)c1cc2c(cc1OCC(=O)O)OCO2 (centres undefined)"
  measuredValue: 65.5
- compound: "COC(=O)CCBr"
  measuredValue: 3.5
- compound: "N#CC1=C(S)N(C2OC(CO)C(O)C(O)C2O)C(c2ccccc2)=CC1c1ccco1 (centres undefined)"
  measuredValue: 27.6
- compound: "CS[C@]12C(=O)C[C@@]3(C)[C@@H](CC[C@]3(O)C(=O)CO)[C@@H]1CCC1=CC(=O)CC[C@@]12C"
  measuredValue: -20.4
- compound: "C=Nc1ccc([N+](=O)[O-])c(N=C)c1"
  measuredValue: 5.15
- compound: "CS(=O)(=O)OCC1CCCCCCCCCCC12SCCCS2 (centres undefined)"
  measuredValue: -45.9
- compound: "C/C(N=NS(=O)(=O)c1c(C)cc(C)cc1C)=C1\\C=CC=CN1O"
  measuredValue: -18.8
- compound: "CN1CCC(OC(=O)C(O)C2CCCCC2)CC1 (centres undefined)"
  measuredValue: 41.8
- compound: "CCCCCCCC/C=C\\CCCCCCCC(=O)N1CCN(C(=O)CCCCCCC/C=C/CCCCCCCC)C1"
  measuredValue: -8.35
- compound: "N/N=C/c1cccn1-c1ccccc1Cl"
  measuredValue: 14.8
- compound: "O=C(NNC(O)C(F)(F)F)c1ccccc1 (centres undefined)"
  measuredValue: 1.5
- compound: "OCC(O)C(O)C(O)c1nn(-c2ccc(Cl)cc2)c2nc3cc(Cl)c(Cl)cc3nc12 (centres undefined)"
  measuredValue: 0.85
- compound: "COc1ccccc1N1C(=O)C2c3[nH]c4ccccc4c3C3CCC(C(C)(C)C)CC3C2C1=O (centres undefined)"
  measuredValue: 5.5
- compound: "Nc1cccc2c1C(=O)c1cccc(Nc3ccc4c(c3)C(=O)c3ccccc3C4=O)c1C2=O"
  measuredValue: 32.9
- compound: "CC(O[Si](C)(C)C(C)(C)C)[C@H](NC(=O)OCC(Cl)(Cl)Cl)C(=O)O (some centres undefined)"
  measuredValue: -14.8
- compound: "CC1=C(O)CC(=O)C1"
  measuredValue: -9.45
- compound: "COC(=O)C1CC23CCCC12CC3 (centres undefined)"
  measuredValue: -7.05
- compound: "CC1CSC(C)(C)C(=O)N1 (centres undefined)"
  measuredValue: 19.9
- compound: "O=[N+]([O-])c1cc(Cl)ccc1Nc1ccccc1"
  measuredValue: 53.5
- compound: "CCC1(C)NC(=O)OC1=O (centres undefined)"
  measuredValue: 4.65
- compound: "Nc1nc(N)nc(C2CC3C=CC2C3)n1 (centres undefined)"
  measuredValue: -0.95
- compound: "CCOC(=O)c1ccc(N(C=O)CCC(OCC)OCC)cc1"
  measuredValue: -0.3
- compound: "O=C1NC(=O)C2(CCCCCC2)N1"
  measuredValue: -26.7
- compound: "CN(C)CCNC(=O)c1cccc2[nH]c(-c3ccncc3)nc12"
  measuredValue: -89.1
- compound: "CC(=O)CC(=O)Nc1cc(C(F)(F)F)ccc1Cl"
  measuredValue: 3.05
- compound: "Nc1nc(NCc2ccccc2)cc(=O)[nH]1"
  measuredValue: -2.75
- compound: "CC(=O)c1cc(Cl)ccc1Cl"
  measuredValue: 26.1
- compound: "CCCC1(CC)COC(c2ccc(C)cc2)OC1 (centres undefined)"
  measuredValue: 3.35
- compound: "CC(=O)OCCn1c(=O)sc2ccccc21"
  measuredValue: -1.4
- compound: "CC(C)=CCC\\C(C)=C/C=C/C(C)=C\\C=C\\C(C)=C/C=C/C=C(C)\\C=C\\C=C(C)/C=C/C=C(/C)CCC=C(C)C"
  measuredValue: 20.2
- compound: "COc1ccc(/C(Nc2ccccc2)=C(\\CCl)c2ccccc2)cc1OC"
  measuredValue: 9.25
- compound: "Nc1nc(-c2ccccc2)cc(-c2cc(Cl)ccc2O)n1"
  measuredValue: 6.55
- compound: "CC(=O)NC(C=O)C(O)C(O)C(O)CO (centres undefined)"
  measuredValue: 2.25
- compound: "O=C1OC(c2ccc3c(c2)CCCC3)=C/C1=C/c1ccc2c(c1)OCO2"
  measuredValue: -15.9
- compound: "O=P(c1ccccc1)(c1ccccc1)N1CC1c1ccccc1 (centres undefined)"
  measuredValue: 10.1
- compound: "COC(=O)N1C(c2ccccc2)C=CC(c2ccccc2)N1C(=O)OC (centres undefined)"
  measuredValue: 18.2
- compound: "CCCCCCCCCCCCOc1ccccn1"
  measuredValue: -4.55
- compound: "CCCCCNC(=O)CCC"
  measuredValue: 40.9
- compound: "Cc1nc(N=C(N)N)nc2ccccc12"
  measuredValue: 14.2
- compound: "COC(=O)c1ccccc1N=CCC(C)CCCC(C)(C)O (centres undefined)"
  measuredValue: -5.05
- compound: "CC(C)(Oc1ccc2c(=O)cc(-c3ccc(Cl)cc3)oc2c1)C(=O)Nc1c(Cl)cccc1Cl"
  measuredValue: 16.8
- compound: "N#C/C(=C\\n1c(=S)[nH]c2ccc([N+](=O)[O-])cc21)c1cccc(Cl)c1"
  measuredValue: -11.2
